# test system: ferroportin (Fpn) (Homo sapiens, UniProt Q9NP59)
# Sequence (Q9NP59 1-571): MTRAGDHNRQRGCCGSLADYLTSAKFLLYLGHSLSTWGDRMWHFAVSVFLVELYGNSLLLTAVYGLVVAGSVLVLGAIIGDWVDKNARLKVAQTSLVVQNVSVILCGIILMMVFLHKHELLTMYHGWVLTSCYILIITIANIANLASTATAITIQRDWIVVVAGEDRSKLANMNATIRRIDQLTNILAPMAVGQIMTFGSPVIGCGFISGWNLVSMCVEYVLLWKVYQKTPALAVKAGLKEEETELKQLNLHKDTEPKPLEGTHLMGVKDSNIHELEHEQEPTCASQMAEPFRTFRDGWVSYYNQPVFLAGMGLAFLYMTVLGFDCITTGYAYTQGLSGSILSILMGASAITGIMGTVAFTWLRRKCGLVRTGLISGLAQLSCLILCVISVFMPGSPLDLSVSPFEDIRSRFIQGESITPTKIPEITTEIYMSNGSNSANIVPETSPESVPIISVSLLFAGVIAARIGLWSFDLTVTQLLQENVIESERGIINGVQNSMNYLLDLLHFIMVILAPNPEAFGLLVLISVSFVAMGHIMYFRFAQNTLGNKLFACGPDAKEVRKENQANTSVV
# protocol notes: Inhibition of ferroportin mediated iron export activity in an iron response assay (BLA reporter, HEK-293 cell line #354)
# reported conditions: HEK-293 cell line #354, BLA reporter; tested as 3HCl-salts; n=3; read-out: Iron response (HEK354 Blazer) IC50
measurement type: pIC50
The meaning of pIC50 here: minus log10 of the concentration in molar units.

{"columns": ["mol", "measurement type", "value measured"],
 "data": [
  ["O=C(NCc1ncccc1F)c1coc(CCNCCc2nc3ccccc3[nH]2)n1", "pIC50", 6.81]
]}

Query :: Output pIC50 of O=C(NCc1ncccc1Br)c1coc(CCNCCc2nc3ccccc3[nH]2)n1
Result :: 6.77
